Assignment: determine reported NF-κB activation for the given binders.
test-system: TLR2/TLR6 heterodimer
experimental-protocol: cell-based or functional assay
Ends that are not written are not given here. Pam2 = S-(2,3-dihydroxypropyl)-cysteine acylated by two palmitic acids (lipo-cysteine)
Answers are plain numbers.

Recorded NF-κB activation (binder {R‑Pam2}-GDPKHPKSF [CBLB606] ): 100

Would you mind giving NF-κB activation for every binder in the list below?
1. Pam2-GQHHM [CBLB603]
2. Pam2-SQMHH [CBLB605]
3. VQGEESNDK (not fully specified (N-terminus)) [CBLB612]
4. Pam2-GDPKHPKSFTGWVA [CBLB607]

Response line:
0
2
200
2
